- System: UO-31 renal
- methodDescription: NCI tumour cell line growth inhibition, 48 h
Each entry below carries its reported TGI.

Some solved cases for reference:
CC(=O)N1N=C(N)CC1=O :: > 100 µM
COc1ccc(Cl)cc1NC(=O)c1c(NC(=O)C(F)(F)C(F)(F)F)sc2c1CCCCC2 :: 5.75 µM
Cc1[nH]c2ccccc2c1C1CC(=O)NC1=O (configuration not stated) :: > 100 µM
COc1ccccc1N=N/C(=N/NC(=O)c1ccc(C)cc1)c1ccc(N(CCC#N)CCC#N)cc1OC :: > 100 µM
COc1cccc(-c2nc(-c3ccc(NC(=O)c4ccccc4)cc3)[nH]c2-c2ccnc(Br)c2)c1 :: > 100 µM
CN(C1=NS(=O)(=O)N=C(N(C)c2ccccc2)O1)c1ccccc1 :: 37.6 µM
CCOC(=O)/C(C#N)=C\C=C1/C=CNC2=NCCN21 :: > 100 µM
CCn1cc(C(=O)N/N=C/c2cccc(F)c2)c(=O)c2cc(F)c(N3CCNC(C)C3)c(F)c21 (configuration not stated) :: 2.79 µM
COc1ccc(CCc2ccc(O)c(C(=O)O)c2)cc1OC :: > 100 µM
c1ccc(/N=C2\c3ccccc3CN2c2ccccn2)nc1 :: > 100 µM

Query block: State the recorded TGI for this entry: CC1(C)N=C(/C=N/O)C(C)(C)N1O
Result block: > 100 µM

Query block: State the recorded TGI for this entry: CCOP(=O)(OCC)/C(C#N)=C/c1cccn1N(C)C
Result block: > 100 µM

Query block: State the recorded TGI for this entry: CN(C)CCCN=c1cc2c(=O)n(CCCN(C)C)c(=O)c3c(NCCCN(C)C)cc4c(O)n(CCCN(C)C)c(=O)c1c4c3-2
Result block: 12.9 µM
